system: Fibroblast; test: Multiplex assay against human fibroblast; assay type: toxicity, cell-based; conditions: 12 h, 1 µM, compound concentration 1 uM, replicate 2
Measure: Population Fragmented Nuclei (%)

- N[C@](CC1c2ccccc2Oc2ccccc21)(C(=O)O)[C@H]1C[C@@H]1C(=O)O: 18
- CCn1c(-c2nc3cc(C(=O)N4CCCC(N)C4)ccc3n2C)cc2ccccc21.Cl (stereo not drawn): 21
- COc1cc(OC2CCN(C(C)=O)CC2)ccc1C(=O)N1CCC(N2C(=O)OCc3ccccc32)CC1: 29
- CN(C)C(=O)Cn1cc(-c2ccc(-c3nnc4ccccn34)cc2)cn1: 20
- COCCn1c(C)c(C)s/c1=N\C(=O)C1C(C)(C)C1(C)C: 22
- Cc1cc(NC(=O)NCCN2CCC(O)(Cc3ccccc3)CC2)c2ccccc2n1: 26
- Nc1nc(-c2ccco2)c2cnn(Cc3ccccc3F)c2n1: 31
- O=C(Nc1cc(-c2ccccc2)nn1-c1ccccc1F)c1ccc([N+](=O)[O-])cc1: 19

###

tested on: HEK-293T; assay: Multiplex assay against HEK293T; type: toxicity, cell-based; conditions: human, 12 h, 10 µM, compound concentration 10 uM, replicate 1
Attribute: Total Cell Count
Measure: Total Cell Count

- Cc1cc(NC(=O)NCCN2CCC(O)(Cc3ccccc3)CC2)c2ccccc2n1 [PALOSURAN]: 461
- COc1ccc2c(c1OCc1ccccc1)C[C@@H](C(=O)O)N(C(=O)C(c1ccccc1)c1ccccc1)C2 [OLODANRIGAN]: 389
- O=c1nc2[nH]c3ccccc3nc-2c(=O)[nH]1 [ALLOXAZINE]: 362
- CCCCCCNC(=O)Nc1ccc(S(=O)(=O)Nc2ccc(CCNC[C@H](O)COc3ccc(O)cc3)cc2)cc1 [L-755507]: 384
- CCC(=O)OCC(=O)[C@@]1(OC(=O)CC)[C@@H](C)C[C@H]2[C@@H]3CCC4=CC(=O)C=C[C@]4(C)[C@@]3(Cl)[C@@H](O)C[C@@]21C [BECLOMETHASONE DIPROPIONATE]: 236
- CN1C[C@H](C(=O)N[C@]2(C)O[C@@]3(O)[C@@H]4CCCN4C(=O)[C@H](Cc4ccccc4)N3C2=O)C[C@@H]2c3cccc4[nH]cc(c34)C[C@H]21.CS(=O)(=O)O [DIHYDROERGOTAMINE MESYLATE]: 403
- S=C(NCCCc1c[nH]cn1)NCCCN(Cc1ccc(Cl)c(Cl)c1)c1ccc(Br)cn1: 242

###

tested on: U2OS; assay: Multiplex assay against U2OS; type: toxicity, cell-based; conditions: human, 12 h, 1 µM, compound concentration 1 uM, replicate 2
Non-standard residues stand in square brackets, D forms with d. Residues, ends and D or L forms follow the SMILES beside them.
Measure: Population Healthy Nuclei (%)

- CN(C)C(=O)Cn1cc(-c2ccc(-c3nnc4ccccn34)cc2)cn1: 68
- Cl.Cl.OCCOCCN1CCN(C(c2ccccc2)c2ccc(Cl)cc2)CC1 (stereo not drawn) [HYDROXYZINE HYDROCHLORIDE]: 78
- COCCn1c(C)c(C)s/c1=N\C(=O)C1C(C)(C)C1(C)C: 74
- COc1ccc2c(c1OCc1ccccc1)C[C@@H](C(=O)O)N(C(=O)C(c1ccccc1)c1ccccc1)C2: 75
- CN1C[C@H](C(=O)N[C@]2(C)O[C@@]3(O)[C@@H]4CCCN4C(=O)[C@H](Cc4ccccc4)N3C2=O)C[C@@H]2c3cccc4[nH]cc(c34)C[C@H]21.CS(=O)(=O)O [DIHYDROERGOTAMINE MESYLATE]: 63
- COc1ccc2[nH]c(I)c(CCNC(C)=O)c2c1: 83
- C=CCN1C[C@H](C(=O)N(CCCN(C)C)C(=O)NCC)C[C@@H]2c3cccc4[nH]cc(c34)C[C@H]21: 84
- O=c1ccc2ccc(OCCCCN3CCN(c4cccc5sccc45)CC3)cc2[nH]1: 69
- COc1cc(C(=O)N2CC[C@@H](O)[C@@H](N)C2)cc2nc(-c3cc4ccccc4n3CC3CC3)n(C)c12.Cl: 75
- CN1CCN(c2ccc(Nc3c4ccccc4nc4ccccc34)cc2)CC1.Cl.Cl.O: 69
- CN(C)C/C=C/C(=O)Nc1ccc(C(=O)N2CCCC(Nc3ncc(Cl)c(-c4c[nH]c5ccccc45)n3)C2)cc1 (stereo not drawn): 77
- O=C(O)CCC/C=C\CC1C(O)CC(O)C1/C=C/C(O)COc1cccc(Cl)c1 (stereo not drawn): 82
- COc1cc(Nc2ncc3c(n2)-c2ccc(Cl)cc2C(c2c(F)cccc2OC)=NC3)ccc1C(=O)O: 55
- O=C(NCCNCC(O)COc1ccc(O)cc1)N1CCOCC1.O=C(NCCNCC(O)COc1ccc(O)cc1)N1CCOCC1.O=C(O)/C=C/C(=O)O (stereo not drawn) [XAMOTEROL FUMARATE]: 68
- Cc1cc(-c2ccc3c(c2)CC[C@H]3N2CC3(CCN(C(=O)Cc4cn5cc(C)sc5n4)CC3)C2)ncn1: 66
- COc1cc2nc(N3CCN(C(=O)COc4c(OC)cccc4C(C)C)CC3)nc(N)c2cc1OC.Cl.Cl: 84
- COc1c(Nc2ccc(S(C)(=O)=O)nc2C)ncnc1OC1CCN(C(=O)OC(C)C)CC1: 78
- COC(c1ccccc1)(c1ccccc1)[C@H](Oc1nc(C)cc(C)n1)C(=O)O: 72
- Cn1cc(C(=O)OCC2CCN(CCNS(C)(=O)=O)CC2)c2ccccc21: 71
- CCCCCCNC(=O)Nc1ccc(S(=O)(=O)Nc2ccc(CCNC[C@H](O)COc3ccc(O)cc3)cc2)cc1: 75
- Cc1sc2c(c1C)C(c1ccc(Cl)cc1)=N[C@H](CC(=O)OC(C)(C)C)c1nnc(C)n1-2: 77
- CN1CCC(C(=O)c2cccc(NC(=O)c3c(F)cc(F)cc3F)n2)CC1: 71
- O=C(Nc1cc(-c2ccccc2)nn1-c1ccccc1F)c1ccc([N+](=O)[O-])cc1: 78
- Cc1ccc(OCC(O)C(C)NC(C)C)c2c1CCC2.Cl (stereo not drawn): 79
- CCn1c(-c2nc3cc(C(=O)N4CCCC(N)C4)ccc3n2C)cc2ccccc21.Cl (stereo not drawn): 77
- CC(C)C[C@@H]1NC(=O)[C@@H](C(C)C)NC(=O)[C@@H]2CCCN2C(=O)[C@@H](CC(=O)O)NC(=O)[C@@H](Cc2c[nH]c3ccccc23)NC1=O [BQ-123] (cyclo(L[dW][dD]P[dV])): 75
- O=c1nc2[nH]c3ccccc3nc-2c(=O)[nH]1: 74
- COc1cc(OC2CCN(C(C)=O)CC2)ccc1C(=O)N1CCC(N2C(=O)OCc3ccccc32)CC1: 69
- CN1CCN2c3ccccc3Cc3ccccc3C2C1.Cl (stereo not drawn) [MIANSERIN HYDROCHLORIDE]: 77
- CSc1nc(NC2CCCC2)c([N+](=O)[O-])c(NC2CCCC2)n1: 76
- COc1cc2nc(N3CCN(C(=O)c4ccco4)CC3)nc(N)c2cc1OC.Cl [PRAZOSIN HYDROCHLORIDE]: 69
- CC(C)(O)C(=O)N1CCN(c2ccc(C(F)(F)F)c(C3=C(c4c[nH]c5ccccc45)C(=O)NC3=O)c2)CC1: 75
- CC(C)C[C@H](CO)Nc1nc(S[C@@H](C)c2ccccc2)nc2nc(N)sc12: 82
